Tested on: Trypanosoma cruzi amastigotes cultured in 3T3 fibroblast cells
Assay Details: Assay for growth inhibition of kinetoplastid parasite Trypanosoma cruzi (beta-galactosidase Tulahuen strain, CPRG readout)
Assay type: cell-based
Condition Set: Trypanosoma cruzi, Fibroblast, T. cruzi amastigotes in 3T3 fibroblast cells; read-out: Buckner infectious T. cruzi EC50
# note: boundary value 70 nM maps to Condition not met; EC50 below it maps to Condition met

In plain terms, does O=C(Nc1ccc(F)c(-n2cc3cc(-c4ccncc4)cnc3n2)c1)N1CC(F)C1 [Compound 182] come in under 70 nM for EC50?
Condition met

Bench note: check whether CCC(C)(C)c1cnc2nn(-c3cc(NC(=O)N4CC(F)C4)ccc3F)cc2c1 [Compound 24] shows EC50 below 70 nM
Condition not met

Find out if reported EC50 for CC(C)c1cnc2nn(-c3cc(NC(=O)N4CC(F)(F)C4)ccc3F)cc2c1 [Compound 124] is less than 70 nM
Condition met

Dear colleague, could you confirm whether EC50 of O=C(Nc1ccc(F)c(-n2cc3cc(N4CC(F)(F)C4)cnc3n2)c1)[C@@H]1C[C@H]1F (single isomer, unassigned) [Compound 268] falls below 70 nM? Thanks.
Condition not met

EC50 under 70 nM? Item: O=C(Nc1ccc(F)c(-n2cc3cc(N4CC5CCC4CO5)cnc3n2)c1)N1CC(F)C1 (centres unmarked) [Compound 197]
Condition met

Dear reviewer, please state whether CC(C)OC(=O)Nc1cnc2nn(-c3cc(NC(=O)N4CCC4)ccc3F)cc2c1 [Compound 138] has EC50 strictly beneath 70 nM.
Condition met

Threshold test, EC50 < 70 nM: O=C(Nc1cccc(-n2cc3cc(N4CC5(CC5)C4)cnc3n2)c1)N1CCC1 [Compound 287]
Condition met

* * *

Provide the reported pEC50 of each item.
Test system: L. donovani HU3 strain in mouse peritoneal macrophages
Assay Details: Assay for inhibition of parasitemia of Leishmania donovani in mouse macrophages (SYBR Green nuclei count, high-content imaging)
Format: cell-based
Condition Set: L. donovani in mouse peritoneal macrophages; read-out: L. donovani in Mouse Macrophages EC50
Expect pEC50 as a plain number equal to -log10 of the molar concentration.

Please look up its pEC50: O=C(Nc1ccc(F)c(-n2cc3cc(N4CC(F)(F)C4)cnc3n2)c1)[C@@H]1C[C@H]1F (single isomer, unassigned) [Compound 271]
8.52

Report pEC50 for O=C(Nc1ccc(F)c(-n2cc3cc(-c4ccccn4)cnc3n2)c1)[C@H]1C[C@@H]1F (single isomer, unassigned) [Compound 269] please.
7.49

// pEC50 lookup, key: O=C(Nc1ccc(F)c(-n2cc3cc(-c4ccccn4)cnc3n2)c1)[C@H]1C[C@@H]1F (single isomer, unassigned) [Compound 273]
8.22

State the recorded pEC50 for this entry: O=C(Nc1ccc(F)c(-n2cc3cc(N4CC(F)(F)C4)cnc3n2)c1)[C@@H]1C[C@H]1F (single isomer, unassigned) [Compound 268]
6.56

* * *

Tested on: Trypanosoma cruzi amastigotes cultured in 3T3 fibroblast cells
Assay Details: Assay for growth inhibition of kinetoplastid parasite Trypanosoma cruzi (beta-galactosidase Tulahuen strain, CPRG readout)
Format: cell-based
Condition Set: Trypanosoma cruzi, Fibroblast, T. cruzi amastigotes in 3T3 fibroblast cells; read-out: Buckner infectious T. cruzi EC50
pEC50: −log10 of the molar value.
Give True when the value for pEC50 is at least 8. Give False when it is less.

Could you tell me if the measured pEC50 of `O=C(Nc1ccc(F)c(-n2cc3cc(N4CC5(COC5)C4)cnc3n2)c1)N1CC(F)C1` reaches 8 or more?
False

# check: pEC50 of `O=C(Nc1ccc(F)c(-n2cc3cc(N4CCCC4)cnc3n2)c1)N1CC(F)C1` is greater than or equal to 8
True

Is pEC50 at least 8? Consider `O=C(Nc1ccc(F)c(-n2cc3cc(N4CCOCC4)cnc3n2)c1)c1ccco1`
True

Is pEC50 at least 8? Consider `Cc1nccnc1-c1cnc2nn(-c3cc(NC(=O)N4CC(F)C4)ccc3F)cc2c1`
True

Identify whether the reported pEC50 of the following compound is 8 or greater: CC(C)c1cnc2nn(-c3cc(NC(=O)C4CCC(C(F)(F)F)C4)ccc3F)cc2c1 (centres unmarked)
False

Determine whether measured pEC50 meets or exceeds 8 for `O=C(Nc1ccc(F)c(-n2cc3cc(C4CC4)cnc3n2)c1)N1CC[C@@H](F)C1`
True
